Origin of values: patent US11236129B2

Target: IL-17RA/IL17RC dimerization induced by IL-17A (Homo sapiens, UniProt Q16552)
Sequence (Q16552 24-155): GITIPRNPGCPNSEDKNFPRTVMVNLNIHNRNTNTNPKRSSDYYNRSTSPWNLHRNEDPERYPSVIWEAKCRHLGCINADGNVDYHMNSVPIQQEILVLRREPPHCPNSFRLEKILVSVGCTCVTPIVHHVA
Assay: IL-17RA/IL17RC dimerization assay in response to IL-17A (PathHunter Cytokine Receptor Assay)
Assay type: cell-based
Settings: IL-17A at EC80; read-out: IC50 in IL-17RA/IL7RC dimerization assay
Residues, ends and D or L forms follow the SMILES beside them.
Consider the following compounds; for each one, report its IC50.

What does the record list as IC50 for CC[C@H](C)[C@H](NC(C)=O)C(=O)N[C@@H](Cc1c[nH]cn1)C(=O)N[C@H](C(=O)N[C@H](C(=O)N[C@H](C(=O)N1CCC[C@H]1C(=O)N[C@@H](C)C(=O)N[C@@H](CC(=O)O)C(=O)N[C@@H](CC(C)C)C(=O)N[C@@H](Cc1c[nH]c2ccccc12)C(=O)N[C@@H](CC(=O)O)C(=O)N[C@@H](Cc1c[nH]c2ccccc12)C(=O)N[C@H](C(=O)N[C@@H](CC(N)=O)C(=O)N[C@@H](CCCCN)C(N)=O)[C@@H](C)CC)[C@@H](C)CC)[C@@H](C)O)[C@@H](C)CC [SEQ ID NO: 171] (Ac-IHITIPADLWDWINK-NH2) ?
< 10 µM

What does the record list as IC50 for CC[C@H](C)[C@H](NC(C)=O)C(=O)N[C@@H](Cc1c[nH]cn1)C(=O)N[C@H](C(=O)N[C@H](C(=O)N[C@H](C(=O)N1CCC[C@H]1C(=O)N[C@@H](C)C(=O)N[C@@H](CC(=O)O)C(=O)N[C@@H](CC(C)C)C(=O)N[C@@H](Cc1c[nH]c2ccccc12)C(=O)N[C@@H](CC(N)=O)C(=O)N[C@@H](Cc1c[nH]c2ccccc12)C(=O)N[C@H](C(=O)N[C@@H](CC(N)=O)C(=O)N[C@@H](CCCCN)C(N)=O)[C@@H](C)CC)[C@@H](C)CC)[C@@H](C)O)C(C)C [SEQ ID NO: 208] (Ac-IHVTIPADLWNWINK-NH2) ?
< 10 µM

###

Target: IL-17RA/IL17RC dimerization induced by IL-17A (Homo sapiens, UniProt Q16552)
Experiment: IL-17RA/IL17RC dimerization assay in response to IL-17A (PathHunter Cytokine Receptor Assay)
Assay type: cell-based
Details: IL-17A at EC80; read-out: IC50 in IL-17RA/IL7RC dimerization assay
Residues, ends and D or L forms follow the SMILES beside them.
Reported property: IC50

What does the record list as IC50 for CC[C@H](C)[C@H](NC(C)=O)C(=O)N[C@@H](Cc1c[nH]cn1)C(=O)N[C@H](C(=O)N[C@H](C(=O)N[C@H](C(=O)N1CCC[C@H]1C(=O)N[C@@H](C)C(=O)N[C@@H](CC(=O)O)C(=O)N[C@@H](CC(C)C)C(=O)N[C@@H](Cc1c[nH]c2ccccc12)C(=O)N[C@@H](CC(=O)O)C(=O)N[C@@H](Cc1c[nH]c2ccccc12)C(=O)N[C@H](C(=O)N[C@@H](CC(N)=O)C(=O)N[C@@H](CCCCN)C(N)=O)C(C)C)[C@@H](C)CC)[C@@H](C)O)C(C)C [SEQ ID NO: 8] (Ac-IHVTIPADLWDWVNK-NH2) ?
< 0.2 µM

What does the record list as IC50 for CC[C@H](C)[C@H](NC(C)=O)C(=O)N[C@@H](Cc1c[nH]cn1)C(=O)N[C@@H](Cc1c[nH]c2ccccc12)C(=O)N[C@H](C(=O)N[C@H](C(=O)N1CCC[C@H]1C(=O)N[C@@H](C)C(=O)N[C@@H](CC(=O)O)C(=O)N[C@@H](CC(C)C)C(=O)N[C@@H](Cc1c[nH]c2ccccc12)C(=O)N[C@@H](CC(=O)O)C(=O)N[C@@H](Cc1c[nH]c2ccccc12)C(=O)N[C@H](C(=O)N[C@@H](CC(N)=O)C(=O)N[C@@H](CCCCN)C(N)=O)[C@@H](C)CC)[C@@H](C)CC)[C@@H](C)O [SEQ ID NO: 173] (Ac-IHWTIPADLWDWINK-NH2) ?
< 10 µM

What does the record list as IC50 for CC[C@H](C)[C@H](NC(=O)[C@@H](NC(=O)[C@H](Cc1ccccc1)NC(=O)[C@H](Cc1c[nH]cn1)NC(=O)[C@@H](NC(C)=O)C(C)C)[C@@H](C)O)C(=O)N1CCC[C@H]1C(=O)N[C@@H](C)C(=O)N[C@@H](CC(=O)O)C(=O)N[C@@H](CC(C)C)C(=O)N[C@@H](Cc1ccc(O)cc1)C(=O)N[C@@H](CC(N)=O)C(=O)N[C@@H](Cc1ccccc1)C(=O)N[C@H](C(=O)N[C@@H](CCCNC(=N)N)C(=O)N[C@@H](CCCNC(=N)N)C(N)=O)C(C)C [SEQ ID NO: 152] (Ac-VHFTIPADLYNFVRR-NH2) ?
< 0.5 µM

What does the record list as IC50 for CC(=O)N[C@H](C(=O)N[C@@H](Cc1c[nH]cn1)C(=O)N[C@H](C(=O)N[C@H](C(=O)N[C@H](C(=O)N1CCC[C@H]1C(=O)N[C@@H](CCC(N)=O)C(=O)N[C@@H](CCC(=O)O)C(=O)N[C@@H](CC(C)C)C(=O)N[C@@H](Cc1ccc(O)cc1)C(=O)N[C@@H](CCC(=O)O)C(=O)N[C@@H](Cc1c[nH]c2ccccc12)C(=O)N[C@H](C(=O)N[C@@H](CCC(=O)O)C(=O)N[C@@H](CCC(=O)O)C(N)=O)C(C)C)C(C)C)[C@@H](C)O)C(C)C)C(C)C [SEQ ID NO: 229] (Ac-VHVTVPQELYEWVEE-NH2) ?
< 10 µM
